Source: PubChem BioAssay (NCI)

Tested on: HL-60(TB) leukemia
ASSAY_COMMENT: NCI-60 one-dose screen, 48 h
CONDITION_PARAMETERS: 10 µM unless noted
This is part of a sample that, as a whole, favours compounds with a hit. Of some 83,000 tested, about 20% had one in any assay. Activity calls are given as the source filed them. How the source made its calls: active means growth percent below 10; inactive means the rest.
Outcome codes: active, inactive

- MOLECULE: "ClCCN(CCCl)c1ccc(-n2cnc3c(Cl)ncnc32)cc1"
  ANSWER_LABEL: "active"
- MOLECULE: "CCCCCCCCCCCCCCCCCC1OC[C@H](COC(=O)O[C@@H](C(=O)O[C@H]2C[C@@]3(O)[C@@H](OC(=O)c4ccccc4)[C@@H]4[C@]5(OC(C)=O)CO[C@@H]5C[C@H](O)[C@@]4(C)C(=O)[C@H](OC(C)=O)C(=C2C)C3(C)C)[C@@H](NC(=O)c2ccccc2)c2ccccc2)O1 (stereo partly specified)"
  ANSWER_LABEL: "inactive"
- MOLECULE: "C#Cc1ccc2c(c1)C(c1ccccc1)=NCC(=O)N2C"
  ANSWER_LABEL: "active"
- MOLECULE: "CC1[C@H](C)OC(=O)CC(O)CC(O)CC(O)CCC(O)C(O)C[C@]2(O)CC(O)C(C(=O)O)C(CC(OC3O[C@H](C)[C@@H](O)[C@H](N)[C@@H]3O)/C=C/C=C/C=C/C=C/CC/C=C/C=C/[C@H](C)[C@H]1O)O2 (stereo partly specified)"
  ANSWER_LABEL: "inactive"
- MOLECULE: "O=NNc1ccccn1"
  ANSWER_LABEL: "inactive"
- MOLECULE: "CC[C@H](C)[C@H](NC(=O)C12C3C4C1C1C2C3C41NC(C)=O)C(=O)N(C)[C@H](C[C@@H](OC(C)=O)c1nc(C(=O)N[C@@H](Cc2ccccc2)C[C@H](C)C(=O)OC)cs1)C(C)C (stereo partly specified)"
  ANSWER_LABEL: "active"
